Data origin: patent US20220402985A1

Reported Schwann cells (SC) (ErbB3) Avg EC50 by item:
molecular target: ErbB3 on rat Schwann cells (rat) (UniProt Q62799); experiment: cell-based or functional assay
Sequence (Q62799 20-1339): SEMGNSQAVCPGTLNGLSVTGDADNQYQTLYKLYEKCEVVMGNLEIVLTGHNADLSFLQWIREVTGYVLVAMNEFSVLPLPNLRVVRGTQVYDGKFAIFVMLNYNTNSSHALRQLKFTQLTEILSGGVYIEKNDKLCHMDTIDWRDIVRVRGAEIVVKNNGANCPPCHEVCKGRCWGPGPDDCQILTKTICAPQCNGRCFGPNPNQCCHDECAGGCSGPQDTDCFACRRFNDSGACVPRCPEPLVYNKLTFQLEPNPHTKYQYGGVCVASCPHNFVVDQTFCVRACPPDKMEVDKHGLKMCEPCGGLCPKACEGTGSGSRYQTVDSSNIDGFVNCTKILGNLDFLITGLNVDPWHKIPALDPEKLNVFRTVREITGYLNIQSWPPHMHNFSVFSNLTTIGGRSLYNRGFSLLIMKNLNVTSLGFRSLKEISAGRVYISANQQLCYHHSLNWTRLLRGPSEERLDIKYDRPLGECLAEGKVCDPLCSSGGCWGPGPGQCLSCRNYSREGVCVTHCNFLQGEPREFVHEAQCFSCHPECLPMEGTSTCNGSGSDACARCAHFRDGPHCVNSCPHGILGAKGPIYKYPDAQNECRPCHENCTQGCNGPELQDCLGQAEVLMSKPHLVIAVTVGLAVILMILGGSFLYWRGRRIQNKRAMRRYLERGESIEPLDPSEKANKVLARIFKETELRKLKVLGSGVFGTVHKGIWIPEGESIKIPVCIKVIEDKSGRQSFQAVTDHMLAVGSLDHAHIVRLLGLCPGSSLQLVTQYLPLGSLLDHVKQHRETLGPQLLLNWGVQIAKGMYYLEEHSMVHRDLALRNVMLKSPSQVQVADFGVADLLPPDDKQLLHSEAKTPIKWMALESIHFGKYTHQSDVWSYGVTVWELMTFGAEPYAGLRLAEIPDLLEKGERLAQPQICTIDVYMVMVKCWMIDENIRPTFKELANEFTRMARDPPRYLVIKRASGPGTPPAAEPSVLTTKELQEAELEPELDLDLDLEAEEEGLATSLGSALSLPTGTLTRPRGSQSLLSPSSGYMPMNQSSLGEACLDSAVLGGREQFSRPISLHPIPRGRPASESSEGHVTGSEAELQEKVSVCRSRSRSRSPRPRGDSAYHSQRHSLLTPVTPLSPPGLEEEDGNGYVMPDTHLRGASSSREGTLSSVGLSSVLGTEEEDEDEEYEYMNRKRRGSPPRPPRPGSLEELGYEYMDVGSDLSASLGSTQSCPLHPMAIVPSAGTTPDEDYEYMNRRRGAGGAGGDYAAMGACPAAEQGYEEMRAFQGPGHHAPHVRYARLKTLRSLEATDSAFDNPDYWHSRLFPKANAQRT
Give the value in µM but do not write µM after it.

Here is how some binders turned out for Schwann cells (SC) (ErbB3) Avg EC50.
BINDER | NUMERIC_READOUT
huNRG1(S177-F229)(NRGE1C) (E47S_D48A_F49L_M50T) 6xHis (ligand) SHLVKCGEKHKSFCVNGGECFMIEGPSNPSRYLCKCPNEFTGDRCQSALTASFGGGGEGGGGAGGGGHHHHHH | 10
huNRG1(S177-Q237)(v80.3)::GG::huFcSEFL2 (Pb) (Fc fusion) SHLVKCAERHKSFCVNGGECFVIEGSSIPSRYLCKCPNEFTGDRCEKDVMASFYKAEELYQGGDKTHTCPPCPAPELLGGPSVFLFPPKPKDTLMISRTPEVTCVVVDVSHEDPEVKFNWYVDGVEVHNAKTKPCEEQYGSTYRCVSVLTVLHQDWLNGKEYKCKVSNKALPAPIEKTISKAKGQPREPQVYTLPPSREEMTKNQVSLTCLVKGFYPSDIAVEWESNGQPENNYKTTPPVLDSDGSFFLYSKLTVDKSRWQQGNVFSCSVMHEALHNHYTQKSLSLSPGK | 3
huNRG1(S177-F229)(NRGE1D) 6xHis (ligand) SHLVKCGESHKSFCVNGGECYMVEGSSIPSRYLCKCPNEFTGDRCQEDFMASFGGGGEGGGGAGGGGHHHHHH | 10
huNRG1(S177-F229)(NRGE1D) (E47V_D48T_F49R_M50L) 6xHis (ligand) SHLVKCGESHKSFCVNGGECYMVEGSSIPSRYLCKCPNEFTGDRCQVTRLASFGGGGEGGGGAGGGGHHHHHH | 10

Q. Name the recorded Schwann cells (SC) (ErbB3) Avg EC50 of the binder listed here: huNRG1(S177-Q237)(NRGE1O)::GG::huFcSEFL2 (Pb) (Fc fusion) SHLVKCGEKHKSFCVNGGECYMVEGSSIPSRYLCKCPNEFTGDRCQDFFMASFYKAEELYQGGDKTHTCPPCPAPELLGGPSVFLFPPKPKDTLMISRTPEVTCVVVDVSHEDPEVKFNWYVDGVEVHNAKTKPCEEQYGSTYRCVSVLTVLHQDWLNGKEYKCKVSNKALPAPIEKTISKAKGQPREPQVYTLPPSREEMTKNQVSLTCLVKGFYPSDIAVEWESNGQPENNYKTTPPVLDSDGSFFLYSKLTVDKSRWQQGNVFSCSVMHEALHNHYTQKSLSLSPGK
A. 0.546
